Reported Population Apoptotic (%) values are given for each entry in this list.
System: U2OS
PROTOCOL NOTES: Multiplex assay against U2OS
Type: toxicity, cell-based
CONDITION PARAMETERS: human, 24 h, 1 µM, compound concentration 1 uM, replicate 2
State the answer as a number, implicitly in %.

INSERT INTO results (molecule, system_under_test, observed_value) VALUES
  ('O=C(NCCN1CCC(n2c(=O)[nH]c3cc(Cl)ccc32)CC1)c1ccc(F)cc1 [HALOPEMIDE]', 'U2OS', 81),
  ('CC[C@@H](C)Nc1nc(C)nc2c(-c3ccc(OC)nc3C)c(C)nn12 [PEXACERFONT]', 'U2OS', 85);

[Q] Find the recorded Population Apoptotic (%) belonging to Br.CS(=O)(=O)Nc1c(O)ccc2c1CCCC2C1=NCCN1 (stereo not given) and report it.
[A] 92

[Q] Sample CN1CCN(c2cc(-c3ccccc3)nc(N)n2)CC1 — what was its Population Apoptotic (%)?
[A] 80

[Q] Find the recorded Population Apoptotic (%) belonging to Cc1onc(-c2ccccc2Cl)c1C(=O)N(C)c1ccc(Cl)cc1 and report it.
[A] 83

* * *

System: HEK-293T
PROTOCOL NOTES: Multiplex assay against HEK293T
Assay type: toxicity, cell-based
CONDITION PARAMETERS: human, 24 h, 1 µM, compound concentration 1 uM, replicate 1
ENDPOINT: Population Hoechst High Intensity Objects (%)
Your answer is read as %, so omit the unit and give the number.

In the examples that follow, each entry is paired with its recorded Population Hoechst High Intensity Objects (%).
INSERT INTO results (molecule, system_under_test, observed_value) VALUES
  ('CCc1cc2cc(NS(=O)(=O)c3ccc(C#N)cc3)ccc2n(CC)c1=O', 'HEK-293T', 5),
  ('O=C(NCCN1CCC(n2c(=O)[nH]c3cc(Cl)ccc32)CC1)c1ccc(F)cc1 [HALOPEMIDE]', 'HEK-293T', 3),
  ('Cc1noc(-c2ccc(-c3ccc(CC(=O)O)cc3)cc2)c1NC(=O)O[C@H](C)c1ccccc1Cl', 'HEK-293T', 5),
  ('C[C@H](N)COC(=O)[C@@H](CCCCN)NC(=O)Cc1c(-c2ccc3ccccc3c2)[nH]c2c1ccc1ccccc12', 'HEK-293T', 4),
  ('Cc1c(CC(=O)O)c2cccnc2n1Cc1ccc(S(C)(=O)=O)cc1C(F)(F)F [FEVIPIPRANT]', 'HEK-293T', 3),
  ('CC(C)COc1ccc(CNC(=O)N(Cc2ccc(F)cc2)C2CCN(C)CC2)cc1 [PIMAVANSERIN]', 'HEK-293T', 6),
  ('COC[C@@H](c1ccc(C(F)(F)F)cc1)N1CCN(C2(C)CCN(C(=O)c3c(C)ncnc3C)CC2)C[C@@H]1C.O=C(O)/C=C\C(=O)O [VICRIVIROC MALEATE]', 'HEK-293T', 6),
  ('Cl.NCCc1ccc(O)c(O)c1 [DOPAMINE HYDROCHLORIDE]', 'HEK-293T', 4);

[Q] For the molecule shown here, Cl.N=C(N)NC(=O)Cc1c(Cl)cccc1Cl [GUANFACINE HYDROCHLORIDE] , give the reported Population Hoechst High Intensity Objects (%).
[A] 4

[Q] Request the reported Population Hoechst High Intensity Objects (%) associated with CCCCCC(O)/C=C/[C@H]1C(=O)CC(O)C1C/C=C\CCCC(=O)O (stereo partly drawn)
[A] 3

[Q] Quick one: Population Hoechst High Intensity Objects (%) of N#Cc1cc(F)cc(-c2nc(-c3ccc(F)cn3)no2)c1 ?
[A] 6

[Q] GET /values?readout=Population Hoechst High Intensity Objects (%)&item= CCCCC1=NC2(CCCC2)C(=O)N1Cc1ccc(-c2ccccc2-c2nnn[nH]2)cc1 [IRBESARTAN]
[A] 4

[Q] # lookup: Population Hoechst High Intensity Objects (%) of O=C1[C@H](Cc2ccc(O)cc2)N2C(=O)CCN(C(=O)NCc3ccccc3)[C@H]2CN1Cc1cccc2ccccc12
[A] 7

[Q] What does the data say about its Population Hoechst High Intensity Objects (%)? Entry: Cc1sc2c(c1C)C(c1ccc(Cl)cc1)=N[C@@H](CC(=O)NCCCCCCCCNC(=O)COc1cccc3c1C(=O)N(C1CCC(=O)NC1=O)C3=O)c1nnc(C)n1-2 (stereo partly drawn)
[A] 6

[Q] # query: Population Hoechst High Intensity Objects (%) of entry CN(C)C(=O)Cn1cc(-c2ccc(-c3cncc4ccccc34)cc2)cn1
[A] 6

[Q] Need Population Hoechst High Intensity Objects (%) of CCCOc1ccc2[nH]cc(C3=CCNCC3)c2n1.Cl , thanks.
[A] 3

[Q] Can you share its Population Hoechst High Intensity Objects (%)? I mean this molecule: Cc1cccc(NC(=O)CN2CCC(c3ccccn3)CC2)c1.Cl.Cl
[A] 3

[Q] What value of Population Hoechst High Intensity Objects (%) has been recorded for this entry: CC(/C=C1\SC(=S)N(CCCC(=O)Nc2ccc(C(=O)O)c(O)c2)C1=O)=C\c1ccccc1
[A] 4
